Experiment: molar heat capacity at constant pressure
Conditions: 298.15 K; 101.33 kPa; Crystal; Small sample (50 mg) DSC
Numbers after ± are expanded uncertainties.
Listed here: items and their measured molar heat capacity at constant pressure.

{"columns": ["molecule", "molar heat capacity at constant pressure"],
 "data": [
  ["c1ccc2c(c1)OCCOCCOCCOCCOc1ccccc1OCCOCCOCCOCCO2 [dibenzo-30-crown-10]", "680.4 ± 42 J/K/mol"],
  ["[Al+3].[Al+3].[O-2].[O-2].[O-2] [aluminum oxide (Al2O3)]", "78.8 ± 1.8 J/K/mol"],
  ["C1COCCOCCOCCOCCOCCO1 [1,4,7,10,13,16-hexaoxacyclooctadecane]", "460 ± 30 J/K/mol"],
  ["c1ccc2c(c1)OCCOCCOc1ccccc1OCCOCCO2 [dibenzo[b,k][1,4,7,10,13,16]hexaoxacyclooctadecane]", "439.7 ± 44 J/K/mol"]
]}
